studySystem: SALL4 ZFC4 WT (HT-SELEX) (Mus musculus, UniProt Q8BX22 870-940)
Sequence: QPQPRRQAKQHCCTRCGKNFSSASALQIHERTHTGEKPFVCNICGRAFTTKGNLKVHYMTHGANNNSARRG
protocol: HT-SELEX; high values mean tight binding
recordedConditions: protein: recombinant; vector His6-GST; dsDNA, one strand shown
Listed sequences paired with reported binding signal
Number only, in fold-change vs cycle 0; omit the unit.

>  <monomerSequence>
ACAACA

>  <u>
fold-change vs cycle 0

>  <binding signal>
1.16

$$$$
>  <monomerSequence>
AACTTC

>  <u>
fold-change vs cycle 0

>  <binding signal>
1.37

$$$$
>  <monomerSequence>
ACTTCC

>  <u>
fold-change vs cycle 0

>  <binding signal>
0.854

$$$$
>  <monomerSequence>
ACCGAA

>  <u>
fold-change vs cycle 0

>  <binding signal>
0.637

$$$$

Recorded binding signal for ATTATG , please? 2.78

Recorded binding signal for GACATC , please? 0.75

Recorded binding signal for AATGTA , please? 2.02

Recorded binding signal for AGTCAA , please? 1.21

Recorded binding signal for ACCGTG , please? 0.361

###

studySystem: SALL4 ZFC4 R900W (HT-SELEX) (Mus musculus, UniProt Q8BX22 870-940, R900W)
Sequence: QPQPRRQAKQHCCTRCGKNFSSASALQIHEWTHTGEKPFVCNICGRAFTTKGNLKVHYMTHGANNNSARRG
protocol: HT-SELEX; high values mean tight binding
recordedConditions: protein: recombinant; vector His6-GST; dsDNA, one strand shown
Listed sequences paired with reported binding signal
Number only, in fold-change vs cycle 0; omit the unit.

Recorded binding signal for CAAAGA , please? 1.34

Recorded binding signal for GGGGAC , please? 0.299

Recorded binding signal for GCGTAC , please? 0.308

Recorded binding signal for ACCCCA , please? 0.525

Recorded binding signal for ATTTCC , please? 1.28

###

studySystem: SALL4 ZFC4 G921D (HT-SELEX) (Mus musculus, UniProt Q8BX22 870-940, G921D)
Sequence: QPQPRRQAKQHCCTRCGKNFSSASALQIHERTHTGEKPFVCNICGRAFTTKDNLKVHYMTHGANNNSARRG
protocol: HT-SELEX; high values mean tight binding
recordedConditions: protein: recombinant; vector His6-GST; dsDNA, one strand shown
# note: exactly 1 fold-change vs cycle 0 is not below, so it is F; use T for binding signal strictly under it

Example entries begin here.
>  <monomerSequence>
GTTAAC

>  <classLabel>
F

$$$$
>  <monomerSequence>
CCAGTC

>  <classLabel>
T

$$$$
>  <monomerSequence>
ACATCT

>  <classLabel>
F

$$$$
>  <monomerSequence>
ACAAGT

>  <classLabel>
F

$$$$
>  <monomerSequence>
CACCAG

>  <classLabel>
T

$$$$

Determine whether this sequence shows binding signal lower than 1 fold-change vs cycle 0 (ties excluded): ATCAAG F

Determine whether this sequence shows binding signal lower than 1 fold-change vs cycle 0 (ties excluded): GTCGAC T

Determine whether this sequence shows binding signal lower than 1 fold-change vs cycle 0 (ties excluded): AACGAG T

Determine whether this sequence shows binding signal lower than 1 fold-change vs cycle 0 (ties excluded): TAGAAA F

Determine whether this sequence shows binding signal lower than 1 fold-change vs cycle 0 (ties excluded): AAACTT F

Determine whether this sequence shows binding signal lower than 1 fold-change vs cycle 0 (ties excluded): ATCGGC T

Determine whether this sequence shows binding signal lower than 1 fold-change vs cycle 0 (ties excluded): ACGGTA T

Determine whether this sequence shows binding signal lower than 1 fold-change vs cycle 0 (ties excluded): AAGCTC T

Determine whether this sequence shows binding signal lower than 1 fold-change vs cycle 0 (ties excluded): CATGGG T

Determine whether this sequence shows binding signal lower than 1 fold-change vs cycle 0 (ties excluded): CTAAGC T

Determine whether this sequence shows binding signal lower than 1 fold-change vs cycle 0 (ties excluded): AGGGCC T

Determine whether this sequence shows binding signal lower than 1 fold-change vs cycle 0 (ties excluded): AGGTAT F

Determine whether this sequence shows binding signal lower than 1 fold-change vs cycle 0 (ties excluded): ACAAAC F

Determine whether this sequence shows binding signal lower than 1 fold-change vs cycle 0 (ties excluded): ATTAGG F

The reported measurements were obtained from paper PMC9838217.
